Each record here notes measured residual activity.
target: KIT (human) (UniProt P10721); test: radiometric filter-binding kinase assay, Kinase HotSpot; conditions: compound 0.5 µM; ATP 10 µM
Sequence (P10721 whole entry, looked up): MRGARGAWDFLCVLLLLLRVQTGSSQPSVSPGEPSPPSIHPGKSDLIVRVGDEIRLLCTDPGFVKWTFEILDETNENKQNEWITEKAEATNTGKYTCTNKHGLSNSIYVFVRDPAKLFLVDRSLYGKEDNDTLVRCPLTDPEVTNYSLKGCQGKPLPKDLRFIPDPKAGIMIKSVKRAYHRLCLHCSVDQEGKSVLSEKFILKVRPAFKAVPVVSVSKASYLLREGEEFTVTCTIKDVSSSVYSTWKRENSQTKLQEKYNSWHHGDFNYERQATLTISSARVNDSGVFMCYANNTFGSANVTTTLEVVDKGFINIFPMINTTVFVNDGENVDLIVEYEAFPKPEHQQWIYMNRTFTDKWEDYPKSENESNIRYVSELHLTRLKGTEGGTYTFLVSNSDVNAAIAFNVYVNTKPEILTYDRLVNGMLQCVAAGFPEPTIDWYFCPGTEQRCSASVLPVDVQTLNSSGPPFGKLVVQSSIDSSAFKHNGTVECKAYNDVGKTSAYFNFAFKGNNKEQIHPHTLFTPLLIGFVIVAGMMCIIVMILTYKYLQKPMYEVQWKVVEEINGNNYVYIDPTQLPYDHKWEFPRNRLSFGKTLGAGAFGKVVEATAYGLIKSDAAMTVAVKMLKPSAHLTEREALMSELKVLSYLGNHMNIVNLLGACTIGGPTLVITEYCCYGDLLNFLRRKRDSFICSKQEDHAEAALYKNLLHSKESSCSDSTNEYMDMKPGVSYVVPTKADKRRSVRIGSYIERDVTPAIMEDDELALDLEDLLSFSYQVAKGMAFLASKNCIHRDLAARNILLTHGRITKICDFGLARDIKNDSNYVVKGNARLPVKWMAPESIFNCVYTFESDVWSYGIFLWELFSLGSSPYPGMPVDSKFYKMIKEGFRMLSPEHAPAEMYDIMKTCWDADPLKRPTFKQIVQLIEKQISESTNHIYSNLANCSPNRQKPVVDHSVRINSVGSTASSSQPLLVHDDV
observationType: residual activity (%)

>>> valueobserved("N#Cc1c[nH]c2c[nH]/c(=N\\Cc3cccnc3)cc2/c1=N\\c1ccc(F)c(Cl)c1")
92.9
>>> valueobserved("Ic1cccc(CSc2nnc(-c3ccncc3)o2)c1")
99.8
>>> valueobserved("O=C1Nc2ccc(Br)cc2/C1=C\\c1cc2c([nH]1)CCCC2")
30.5
>>> valueobserved("COc1ccc(C(=O)Nc2sc3c(c2C(N)=O)CCCC3)cc1OC")
46.2
>>> valueobserved("COc1cc(Nc2c(C#N)cnc3cc(OCCCN4CCN(C)CC4)c(OC)cc23)c(Cl)cc1Cl")
93.6
>>> valueobserved("CN(C)CCCn1cc(C2=C(c3c[nH]c4ccccc34)C(=O)NC2=O)c2ccccc21")
69.5
>>> valueobserved("Cn1c2ccccc2c2c3c(c4c5ccccc5n(CCC#N)c4c21)CNC3=O")
96.9
>>> valueobserved("CC(C)(C)c1cc(C=C(C#N)C#N)cc(Br)c1O")
97.9
>>> valueobserved("C[C@@H]1CCN(C(=O)CC#N)C[C@@H]1N(C)c1ncnc2[nH]ccc12")
98.9
>>> valueobserved("Cc1cccc(-c2nc(C(C)(C)C)[nH]c2-c2ccc3c(c2)OCO3)n1")
93.6

---

target: MAP4K5 (human) (UniProt Q9Y4K4); assay: radiometric filter-binding kinase assay, Kinase HotSpot; conditions: compound 0.5 µM; ATP 10 µM
Sequence (Q9Y4K4 whole entry, looked up): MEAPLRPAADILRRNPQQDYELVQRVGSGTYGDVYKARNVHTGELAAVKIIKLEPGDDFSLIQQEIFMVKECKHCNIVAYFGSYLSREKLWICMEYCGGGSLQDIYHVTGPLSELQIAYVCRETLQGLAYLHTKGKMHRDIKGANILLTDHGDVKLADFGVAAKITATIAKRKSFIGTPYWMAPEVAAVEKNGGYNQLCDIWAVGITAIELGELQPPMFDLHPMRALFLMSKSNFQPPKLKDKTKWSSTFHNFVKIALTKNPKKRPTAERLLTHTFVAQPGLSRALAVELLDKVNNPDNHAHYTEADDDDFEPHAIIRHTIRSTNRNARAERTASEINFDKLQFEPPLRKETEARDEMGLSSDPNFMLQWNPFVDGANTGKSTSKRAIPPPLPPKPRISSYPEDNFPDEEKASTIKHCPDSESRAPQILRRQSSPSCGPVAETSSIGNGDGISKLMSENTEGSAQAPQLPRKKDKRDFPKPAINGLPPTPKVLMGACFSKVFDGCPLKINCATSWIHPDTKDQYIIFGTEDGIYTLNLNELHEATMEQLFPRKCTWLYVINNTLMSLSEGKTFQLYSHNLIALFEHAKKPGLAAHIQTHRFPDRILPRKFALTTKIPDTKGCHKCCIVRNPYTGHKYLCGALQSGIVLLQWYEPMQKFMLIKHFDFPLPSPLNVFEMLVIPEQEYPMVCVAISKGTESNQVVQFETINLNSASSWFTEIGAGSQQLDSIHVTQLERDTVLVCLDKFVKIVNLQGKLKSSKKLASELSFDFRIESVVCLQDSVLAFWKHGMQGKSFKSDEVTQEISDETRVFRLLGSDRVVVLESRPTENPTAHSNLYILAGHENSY
Simple rule here: residual activity less than 80% is true, otherwise false.

>>> group("CCCCc1c(-c2ccc(OC)cc2)[nH]c2nccnc12")
"true"
>>> group("CN(C)c1ccc(/C=C2\\C(=O)Nc3ccccc32)cc1")
"false"
>>> group("O=C(c1cc2cc(O)ccc2[nH]1)c1cc2cc(O)ccc2[nH]1")
"true"
>>> group("Ic1cccc(CSc2nnc(-c3ccncc3)o2)c1")
"false"
>>> group("COc1ccc(Cl)cc1NC(=O)Nc1cc(C)nc2ccccc12")
"false"
>>> group("Cc1cccc(-c2nc(C(C)(C)C)[nH]c2-c2ccc3c(c2)OCO3)n1")
"false"
>>> group("C[C@@H]1CCN(C(=O)CC#N)C[C@@H]1N(C)c1ncnc2[nH]ccc12")
"false"
>>> group("COc1cc2ncnc(Nc3ccc(Oc4ccccc4)cc3)c2cc1OC")
"true"
>>> group("COc1cc2ncnc(Nc3ccc(OCc4ccccc4)cc3)c2cc1OC")
"true"
>>> group("NC(=O)c1cccc(-c2cc(Nc3ccc(OC(F)(F)F)cc3)ncn2)c1")
"false"
>>> group("CS(=O)(=O)CCNCc1ccc(-c2ccc3ncnc(Nc4ccc(OCc5cccc(F)c5)c(Cl)c4)c3c2)o1")
"false"

---

target: PRKCH (human) (UniProt P24723); experiment: radiometric filter-binding kinase assay, Kinase HotSpot; conditions: compound 0.5 µM; ATP 10 µM
Sequence (P24723 whole entry, looked up): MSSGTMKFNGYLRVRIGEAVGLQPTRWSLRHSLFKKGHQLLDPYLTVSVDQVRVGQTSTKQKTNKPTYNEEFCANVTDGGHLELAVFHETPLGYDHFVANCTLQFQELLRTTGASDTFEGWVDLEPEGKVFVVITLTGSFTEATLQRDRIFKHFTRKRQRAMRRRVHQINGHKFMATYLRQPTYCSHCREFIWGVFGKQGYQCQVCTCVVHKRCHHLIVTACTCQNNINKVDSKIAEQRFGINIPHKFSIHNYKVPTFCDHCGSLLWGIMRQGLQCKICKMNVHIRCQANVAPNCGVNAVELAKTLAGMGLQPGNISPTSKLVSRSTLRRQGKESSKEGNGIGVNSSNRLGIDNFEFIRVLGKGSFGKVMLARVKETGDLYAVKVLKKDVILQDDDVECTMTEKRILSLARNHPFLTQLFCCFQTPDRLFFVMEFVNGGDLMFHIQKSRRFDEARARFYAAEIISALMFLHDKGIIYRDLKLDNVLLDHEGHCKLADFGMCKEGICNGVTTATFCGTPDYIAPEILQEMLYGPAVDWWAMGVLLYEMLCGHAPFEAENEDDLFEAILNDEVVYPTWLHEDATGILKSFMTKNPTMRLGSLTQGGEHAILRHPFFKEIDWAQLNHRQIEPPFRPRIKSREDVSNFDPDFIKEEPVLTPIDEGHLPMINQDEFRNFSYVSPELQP
Each record here notes measured residual activity.
observationType: residual activity (%)

>>> valueobserved("N#C/C(=C\\c1ccc(O)c(O)c1)C(=O)NCc1ccccc1")
95.5
>>> valueobserved("CS(=O)(=O)CCNCc1ccc(-c2ccc3ncnc(Nc4ccc(OCc5cccc(F)c5)c(Cl)c4)c3c2)o1")
110
>>> valueobserved("Cc1cn(-c2cc(NC(=O)c3ccc(C)c(Nc4nccc(-c5cccnc5)n4)c3)cc(C(F)(F)F)c2)cn1")
121
>>> valueobserved("Cn1c2ccccc2c2c3c(c4c5ccccc5n(CCC#N)c4c21)CNC3=O")
35.3
>>> valueobserved("N#Cc1c[nH]c2c[nH]/c(=N\\Cc3cccnc3)cc2/c1=N\\c1ccc(F)c(Cl)c1")
117
>>> valueobserved("COc1ccc(C(=O)Nc2sc3c(c2C(N)=O)CCCC3)cc1OC")
101
>>> valueobserved("COc1ccc2c(c1)/C(=C/c1cnc[nH]1)C(O)=N2")
111
>>> valueobserved("COc1cc(Nc2c(C#N)cnc3cc(OCCCN4CCN(C)CC4)c(OC)cc23)c(Cl)cc1Cl")
102
>>> valueobserved("O=C1Nc2ccc(Br)cc2/C1=C\\c1cc2c([nH]1)CCCC2")
97.4
>>> valueobserved("C[C@@H]1CCN(C(=O)CC#N)C[C@@H]1N(C)c1ncnc2[nH]ccc12")
100
>>> valueobserved("Cc1cccc(-c2nc(C(C)(C)C)[nH]c2-c2ccc3c(c2)OCO3)n1")
104
>>> valueobserved("CN(C)CCCn1cc(C2=C(c3c[nH]c4ccccc34)C(=O)NC2=O)c2ccccc21")
7.67
>>> valueobserved("COc1ccc2c(c1)c(C1=C(c3c[nH]c4ccccc34)C(=O)NC1=O)cn2CCCN(C)C")
6.85
>>> valueobserved("O=C1c2ccccc2-c2nc3nnnn3nc21")
49.2
>>> valueobserved("O=C1c2ccccc2-c2n[nH]c3cccc1c23")
87.6
>>> valueobserved("CN1CCN(c2ccc3nc(-c4c(N)c5c(F)cccc5[nH]c4=O)[nH]c3c2)CC1")
103
>>> valueobserved("CC(C)(C)c1cc(C=C(C#N)C#N)cc(Br)c1O")
100
>>> valueobserved("COc1ccc(Cl)cc1NC(=O)Nc1cc(C)nc2ccccc12")
88.6
>>> valueobserved("COc1cc2ncnc(Nc3ccc(Oc4ccccc4)cc3)c2cc1OC")
87.3
>>> valueobserved("c1ccc2c(-c3ccncc3)c[nH]c2c1")
84.9
>>> valueobserved("O=C(c1cc2cc(O)ccc2[nH]1)c1cc2cc(O)ccc2[nH]1")
76.3
>>> valueobserved("NC(=O)c1cccc(-c2cc(Nc3ccc(OC(F)(F)F)cc3)ncn2)c1")
98.4
>>> valueobserved("Fc1ccc(-c2nc3n(c2-c2ccncc2)CCS3)cc1")
87.4
>>> valueobserved("Cc1nc(-c2ccccc2)c(-c2ccncc2)o1")
88.1
>>> valueobserved("COc1cc2ncnc(Nc3ccc(OCc4ccccc4)cc3)c2cc1OC")
97.2
>>> valueobserved("O=C1C(Cl)=C(N2C(=O)CCC2=O)C(=O)c2ccccc21")
93.1
>>> valueobserved("CCCCc1c(-c2ccc(OC)cc2)[nH]c2nccnc12")
103
>>> valueobserved("O=C1NC(=O)c2c1c1c3ccccc3[nH]c1n1cncc21")
74.8
>>> valueobserved("CN(C)S(=O)(=O)c1ccc2c(c1)/C(=C/c1cc3c([nH]1)CCCC3)C(=O)N2")
78.5
>>> valueobserved("COc1ccc(S(=O)(=O)N(CCO)c2ccccc2CN(C)C/C=C/c2ccc(Cl)cc2)cc1")
95.9
>>> valueobserved("CO[C@@H]1[C@H](N(C)C(=O)c2ccccc2)C[C@H]2O[C@]1(C)n1c3ccccc3c3c4c(c5c6ccccc6n2c5c31)C(=O)NC4")
20.4
>>> valueobserved("Cc1cncc2cccc(S(=O)(=O)N3CCCN(C(=O)CN)C[C@H]3C)c12")
34.4
>>> valueobserved("Ic1cccc(CSc2nnc(-c3ccncc3)o2)c1")
99.1
>>> valueobserved("CN(C)c1ccc(/C=C2\\C(=O)Nc3ccccc32)cc1")
92.3

---

target: PIM3 (human); experiment: radiometric filter-binding kinase assay, Kinase HotSpot; settings: compound 0.5 µM; ATP 10 µM
Simple rule here: residual activity less than 90% is Met, otherwise Not met.

>>> group("O=C1C(Cl)=C(N2C(=O)CCC2=O)C(=O)c2ccccc21")
"Not met"
>>> group("CN(C)CCCn1cc(C2=C(c3c[nH]c4ccccc34)C(=O)NC2=O)c2ccccc21")
"Met"
>>> group("N#C/C(=C\\c1ccc(O)c(O)c1)C(=O)NCc1ccccc1")
"Not met"
>>> group("COc1ccc(C(=O)Nc2sc3c(c2C(N)=O)CCCC3)cc1OC")
"Not met"
>>> group("N#Cc1c[nH]c2c[nH]/c(=N\\Cc3cccnc3)cc2/c1=N\\c1ccc(F)c(Cl)c1")
"Met"
>>> group("COc1ccc2c(c1)c(C1=C(c3c[nH]c4ccccc34)C(=O)NC1=O)cn2CCCN(C)C")
"Met"
>>> group("COc1cc(Nc2c(C#N)cnc3cc(OCCCN4CCN(C)CC4)c(OC)cc23)c(Cl)cc1Cl")
"Not met"

---

biological target: NUAK2 (human); experiment: radiometric filter-binding kinase assay, Kinase HotSpot; conditions: compound 0.5 µM; ATP 10 µM
observationType: residual activity (%)

>>> valueobserved("CN(C)CCCn1cc(C2=C(c3c[nH]c4ccccc34)C(=O)NC2=O)c2ccccc21")
66
>>> valueobserved("CN(C)c1ccc(/C=C2\\C(=O)Nc3ccccc32)cc1")
94.3
>>> valueobserved("COc1ccc(S(=O)(=O)N(CCO)c2ccccc2CN(C)C/C=C/c2ccc(Cl)cc2)cc1")
113
>>> valueobserved("Cc1nc(-c2ccccc2)c(-c2ccncc2)o1")
128
>>> valueobserved("CC(C)(C)c1cc(C=C(C#N)C#N)cc(Br)c1O")
99.6
>>> valueobserved("Fc1ccc(-c2nc3n(c2-c2ccncc2)CCS3)cc1")
135
>>> valueobserved("COc1ccc2c(c1)/C(=C/c1cnc[nH]1)C(O)=N2")
116
>>> valueobserved("O=C1c2ccccc2-c2nc3nnnn3nc21")
92.5
>>> valueobserved("N#C/C(=C\\c1ccc(O)c(O)c1)C(=O)NCc1ccccc1")
131
>>> valueobserved("CS(=O)(=O)CCNCc1ccc(-c2ccc3ncnc(Nc4ccc(OCc5cccc(F)c5)c(Cl)c4)c3c2)o1")
95.1
>>> valueobserved("N#Cc1c[nH]c2c[nH]/c(=N\\Cc3cccnc3)cc2/c1=N\\c1ccc(F)c(Cl)c1")
135
